GI50 values by entry
tested on: MDA-MB-468 breast; assay: NCI tumour cell line growth inhibition, 48 h
property: GI50

{"compound": "N=C1/C(=C2\\Nc3ccccc3S2)CC(=O)N1c1ccc(SC(F)F)cc1", "recorded.measurement": "> 100000 nM"}
{"compound": "COc1cc(-c2nn(-c3cccc(NC(=O)CCN4CCN(C)CC4)c3)cc2-c2ccncc2)ccc1Cl", "recorded.measurement": "997 nM"}
{"compound": "COCCOC1=C(Cl)C(=O)c2c(O)ccc(O)c2C1=O", "recorded.measurement": "899 nM"}
{"compound": "Fc1ccc(-c2c(-c3ccncc3)[nH]c3nccnc23)cc1", "recorded.measurement": "4480 nM"}
{"compound": "O=C(Nc1ccccc1)Nc1ccc(Cl)c(Cl)c1", "recorded.measurement": "2830 nM"}
{"compound": "COc1ccc(/C=C2/CN(CCC#N)C/C(=C\\c3ccc(OC)cc3)C2=O)cc1", "recorded.measurement": "1390 nM"}
{"compound": "O=C(CSc1ncc(-c2ccccc2)n1-c1ccccc1)Nc1ccc(-c2nc3ccccc3s2)cc1", "recorded.measurement": "1350 nM"}
{"compound": "Cn1cc(C2=C(c3c(S(C)=O)n(C)c4ccccc34)C(=O)NC2=O)c2ccccc21 (stereo not drawn)", "recorded.measurement": "6710 nM"}
{"compound": "CN1CCN(c2ccc(Nc3ncc4cc5n(c4n3)C3(CCCCC3)CNC5=O)nc2)CC1", "recorded.measurement": "10900 nM"}
{"compound": "O=C1NC(=O)C(c2c[nH]c3ccccc23)=C1c1ccccc1", "recorded.measurement": "> 25000 nM"}
{"compound": "N[C@@H](CSSC[C@H](N)C(=O)N1CCn2cc(-c3ccccc3)nc2[C@@H]1CC1CCCCC1)C(=O)N1CCn2cc(-c3ccccc3)nc2[C@@H]1CC1CCCCC1", "recorded.measurement": "1070 nM"}
{"compound": "c1n[nH]cc1-c1nc2ccc3[nH]ncc3c2c2c1CC1(CCOCC1)CC2", "recorded.measurement": "10700 nM"}
{"compound": "O=c1c2cc(-c3ccc(F)cc3F)ccc2n(O)c(=O)n1-c1cccc(C(F)(F)F)c1", "recorded.measurement": "1680 nM"}

====

system: MDA-MB-468 breast; assay: NCI tumour cell line growth inhibition, 48 h

{"compound": "COC(=O)c1ccc2c(C(=Nc3ccc(N(C)C(=O)CN4CCN(C)CC4)cc3)c3ccccc3)c(O)[nH]c2c1", "scale.unit": "µM", "operator.symbol": "=", "TGI": 9.78}
{"compound": "Cn1cc(C2=C(c3c(S(C)=O)n(C)c4ccccc34)C(=O)NC2=O)c2ccccc21 (stereo not drawn)", "scale.unit": "µM", "operator.symbol": ">", "TGI": 25}
{"compound": "OCc1ccc(N(Cc2ccc(F)cc2)CC2CCC2)cc1Cl", "scale.unit": "µM", "operator.symbol": "=", "TGI": 0.61}
{"compound": "O=C(O)c1cn(C2CC2)c2cc(N3CCN(Cc4ccc5ccccc5c4O)CC3)c(F)cc2c1=O", "scale.unit": "µM", "operator.symbol": ">", "TGI": 100}
{"compound": "C#Cc1ccc(-n2c(/C=C/c3ccc4ccccc4c3)nc3ncccc3c2=O)cc1", "scale.unit": "µM", "operator.symbol": "=", "TGI": 7.77}
{"compound": "COC(=O)[C@]12CC[C@@H](C)[C@H](C)[C@@H]1C1=CC[C@@H]3[C@@]4(C)CC(=O)[C@H](O)[C@@](C)(CO)[C@@H]4C(=O)C[C@@]3(C)[C@]1(C)CC2", "scale.unit": "µM", "operator.symbol": "=", "TGI": 32.2}
{"compound": "CCCCNNC(=O)c1ccc(-c2cccc(F)c2F)cc1", "scale.unit": "µM", "operator.symbol": "=", "TGI": 6.06}
{"compound": "C=CC(=O)Nc1ccc(C(=O)/C=C/c2ccc(N(C)C)cc2)c(O)c1", "scale.unit": "µM", "operator.symbol": "=", "TGI": 6.17}

Attribution: PubChem BioAssay (NCI)
